# system-name: Leukotriene A-4 hydrolase (Homo sapiens, UniProt P09960)
# Sequence (P09960 whole entry): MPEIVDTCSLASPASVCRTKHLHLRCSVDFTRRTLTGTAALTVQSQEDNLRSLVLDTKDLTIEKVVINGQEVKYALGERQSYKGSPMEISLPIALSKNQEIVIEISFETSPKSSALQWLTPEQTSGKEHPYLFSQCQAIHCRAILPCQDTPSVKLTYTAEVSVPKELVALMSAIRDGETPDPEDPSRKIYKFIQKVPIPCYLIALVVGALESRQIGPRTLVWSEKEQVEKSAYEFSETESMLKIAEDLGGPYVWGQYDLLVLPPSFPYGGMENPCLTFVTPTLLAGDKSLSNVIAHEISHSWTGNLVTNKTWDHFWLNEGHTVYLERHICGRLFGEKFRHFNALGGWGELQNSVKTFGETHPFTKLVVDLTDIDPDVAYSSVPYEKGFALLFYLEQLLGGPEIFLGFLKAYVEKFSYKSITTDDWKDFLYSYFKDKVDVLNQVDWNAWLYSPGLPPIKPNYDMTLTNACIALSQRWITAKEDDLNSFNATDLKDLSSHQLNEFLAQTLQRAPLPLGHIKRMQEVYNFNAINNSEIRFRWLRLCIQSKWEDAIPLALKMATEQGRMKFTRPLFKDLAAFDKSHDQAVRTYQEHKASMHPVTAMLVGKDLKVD
# protocol-text: Inhibition of amidase activity of LTA4 hydrolase purified from human leukocytes
pIC50: −log10 of the molar value.
measured-quantity: pIC50

| compound | system-name | result |
| --- | --- | --- |
| N[C@@H](Cc1ccccc1)[C@H](O)C(=O)NCc1ccccc1 | Leukotriene A-4 hydrolase (Homo sapiens, UniProt P09960) | < 4.00 |
| CC(C)C[C@H](/N=C(\S)[C@H](O)[C@H](N)Cc1ccccc1)C(=O)O | Leukotriene A-4 hydrolase (Homo sapiens, UniProt P09960) | < 4.00 |
| NC(Cc1ccccc1)P(=O)(O)NCC(=O)O (centres undefined) | Leukotriene A-4 hydrolase (Homo sapiens, UniProt P09960) | < 4.00 |
| CC(C)C[C@H](NC(=O)C(S)C(N)Cc1ccccc1)C(=O)O (some centres undefined) | Leukotriene A-4 hydrolase (Homo sapiens, UniProt P09960) | < 3.60 |
| CC(C)C[C@H](/N=C(\S)[C@H](O)[C@@H](N)Cc1ccccc1)C(=O)O | Leukotriene A-4 hydrolase (Homo sapiens, UniProt P09960) | < 4.00 |
| COC(=O)C(S)C(N)Cc1ccccc1 (centres undefined) | Leukotriene A-4 hydrolase (Homo sapiens, UniProt P09960) | 3.60 |
| CCOC(=O)CC(F)(F)C(=O)c1[nH]cnc1C | Leukotriene A-4 hydrolase (Homo sapiens, UniProt P09960) | < 3.00 |
| N[C@@H](Cc1ccccc1)[C@H](O)C(=O)OCc1ccccc1 | Leukotriene A-4 hydrolase (Homo sapiens, UniProt P09960) | 4.70 |
| CC(C)C[C@H](/N=C(\S)[C@@H](O)[C@H](N)Cc1ccccc1)C(=O)O | Leukotriene A-4 hydrolase (Homo sapiens, UniProt P09960) | < 4.00 |
